assay: activity coefficient (dimensionless); of the first substance listed, at infinite dilution; xn = mol fraction of the nth substance listed; conditions: 338.15 K; 101 kPa; Liquid; Chromatography; x1 = 0
The entries below come with measured activity coefficient values attached.
Reply with just the number.

Consider the worked cases shown below.
Find the measured activity coefficient of CCCCCCCC [octane] + COCC[N+]1(C)CCCCC1.O=S(=O)([N-]S(=O)(=O)C(F)(F)F)C(F)(F)F and report it. 30

Find the measured activity coefficient of C#CCCCCCC [1-octyne] + COCC[N+]1(C)CCCCC1.O=S(=O)([N-]S(=O)(=O)C(F)(F)F)C(F)(F)F and report it. 5.85

Now let's try a different one.
Find the measured activity coefficient of c1ccsc1 [thiophene] + COCC[N+]1(C)CCCCC1.O=S(=O)([N-]S(=O)(=O)C(F)(F)F)C(F)(F)F and report it. 0.808

----------
test: activity coefficient (dimensionless); of the first substance listed, at infinite dilution; xn = mol fraction of the nth substance listed; details: 318.15 K; 101 kPa; Liquid; Chromatography; x1 = 0
OBSERVATION TYPE: activity coefficient
Reply with just the number.

Find the measured activity coefficient of C=Cc1ccccc1 [styrene] + COCC[N+]1(C)CCCCC1.O=S(=O)([N-]S(=O)(=O)C(F)(F)F)C(F)(F)F and report it. 1.08

Find the measured activity coefficient of C=CCCCCC [1-heptene] + COCC[N+]1(C)CCCCC1.O=S(=O)([N-]S(=O)(=O)C(F)(F)F)C(F)(F)F and report it. 12.4

Find the measured activity coefficient of C1CCCCC1 [cyclohexane] + COCC[N+]1(C)CCCCC1.O=S(=O)([N-]S(=O)(=O)C(F)(F)F)C(F)(F)F and report it. 9.72

Find the measured activity coefficient of C1CCCCCCC1 [cyclooctane] + COCC[N+]1(C)CCCCC1.O=S(=O)([N-]S(=O)(=O)C(F)(F)F)C(F)(F)F and report it. 18

Find the measured activity coefficient of CCC(C)(C)C [2,2-dimethylbutane] + COCC[N+]1(C)CCCCC1.O=S(=O)([N-]S(=O)(=O)C(F)(F)F)C(F)(F)F and report it. 13.5

Find the measured activity coefficient of CCCC(=O)OC [methyl butanoate] + COCC[N+]1(C)CCCCC1.O=S(=O)([N-]S(=O)(=O)C(F)(F)F)C(F)(F)F and report it. 1.22

Find the measured activity coefficient of C1=CCCCC1 [cyclohexene] + COCC[N+]1(C)CCCCC1.O=S(=O)([N-]S(=O)(=O)C(F)(F)F)C(F)(F)F and report it. 5.41

Find the measured activity coefficient of CCC(C)(C)OC [2-methoxy-2-methylbutane] + COCC[N+]1(C)CCCCC1.O=S(=O)([N-]S(=O)(=O)C(F)(F)F)C(F)(F)F and report it. 3.74

----------
The entries below come with measured activity coefficient values attached.
experiment: activity coefficient (dimensionless); of the first substance listed, at infinite dilution; xn = mol fraction of the nth substance listed; details: 318.15 K; 101 kPa; Liquid; Chromatography; x1 = 0
Reply with just the number.

Find the measured activity coefficient of CCCCC [pentane] + COCC[N+]1(C)CCCCC1.O=S(=O)([N-]S(=O)(=O)C(F)(F)F)C(F)(F)F and report it. 11.8

Find the measured activity coefficient of COC(C)=O [methyl ethanoate] + COCC[N+]1(C)CCCCC1.O=S(=O)([N-]S(=O)(=O)C(F)(F)F)C(F)(F)F and report it. 0.7

Find the measured activity coefficient of CCCCCCCCCC [decane] + COCC[N+]1(C)CCCCC1.O=S(=O)([N-]S(=O)(=O)C(F)(F)F)C(F)(F)F and report it. 73.9

Find the measured activity coefficient of CC(C)(C)O [2-methylpropan-2-ol] + COCC[N+]1(C)CCCCC1.O=S(=O)([N-]S(=O)(=O)C(F)(F)F)C(F)(F)F and report it. 1.87

Next:
Find the measured activity coefficient of C#CCCCC [1-hexyne] + COCC[N+]1(C)CCCCC1.O=S(=O)([N-]S(=O)(=O)C(F)(F)F)C(F)(F)F and report it. 2.98

Find the measured activity coefficient of CCOC(C)(C)C [2-ethoxy-2-methylpropane] + COCC[N+]1(C)CCCCC1.O=S(=O)([N-]S(=O)(=O)C(F)(F)F)C(F)(F)F and report it. 5.82

Find the measured activity coefficient of Cc1cccc(C)c1 [1,3-dimethylbenzene] + COCC[N+]1(C)CCCCC1.O=S(=O)([N-]S(=O)(=O)C(F)(F)F)C(F)(F)F and report it. 1.8

All values here come from the NIST ThermoML archive (doi:10.1016/j.jct.2012.01.019).
